Source of measurements: patent US20040106663A1

- System: logarithmic phase C. albicans (MC295) containing HWP1-lacZ
- ASSAY_METHOD_TEXT: microbe, parasite or virus in culture
- Assay type: cell-based
- CONDITIONS: Candida albicans, read-out: C. albicans LOG IC50, logarithmic phase growth invasion assay (converted)
PARAMETER: IC50 (µM)
Could you give me the number in µM? Just the number is fine.

Cc1cc(NS(=O)(=O)c2ccc(Oc3ccccc3)cc2)no1 : 5.21
CCCCC(F)(F)c1ccc(S(=O)(=O)Nc2cc(C)on2)cc1 : 2.02

// IC50 lookup, molecule = `CCCCCc1ccc(S(=O)(=O)Nc2cc(C)on2)cc1` , result: 0.00928
